System: Candida albicans
test: Antifungal activity against Candida albicans IOA-109 at 37 degC after 18 to 48 hrs; further: test concentration or dose not given here
Format: functional
Answer each item with its documented diameter of the inhibition zone (DIZ).

Past entries and their recorded results:
CCCCC/C=C\CC[C@H](O)CCCCCCCc1nc2c([nH]1)CCCC2
19 mm
CCCCCC[C@@H](O)C/C=C\CCCCCCCc1nc2c([nH]1)CCCC2
17 mm
CCCCCCCC/C=C\CCCCCCCc1nc2ccccc2[nH]1
19 mm
CCCCCC[C@@H](O)C/C=C\CCCCCCCc1nc2cc([N+](=O)[O-])ccc2[nH]1
19 mm
CCCCCC[C@@H](O)C/C=C\CCCCCCCc1nc2cc(Cl)ccc2[nH]1
18 mm
CCCCCC[C@@H](O)C/C=C\CCCCCCCc1ncc[nH]1
18 mm
CCCCC/C=C\CC[C@H](O)CCCCCCCc1nc2cc([N+](=O)[O-])ccc2[nH]1
19 mm

Please look up its diameter of the inhibition zone (DIZ): CCCCC/C=C\CC[C@H](O)CCCCCCCc1nc2cc(Cl)ccc2[nH]1
18 mm

###

Answer each item with its documented diameter of the inhibition zone (DIZ).
Tested on: Salmonella typhimurium
test: Antibacterial activity against Salmonella Typhimurium MTCC 98 at 37 degC after 24 hrs by filter paper disk method
Type: functional, Salmonella enterica subsp. enterica serovar Typhimurium
Answers are plain numbers, in mm.

C=CCCCCCCCCc1nc2c([nH]1)CCCC2
11
CCCCCCCC/C=C/CCCCCCCc1ncc[nH]1
11
CCCCC/C=C\CC[C@H](O)CCCCCCCc1nc2ccccc2[nH]1
12
CCCCCC[C@@H](O)C/C=C\CCCCCCCc1nc2c([nH]1)CCCC2
12
CCCCC/C=C\CC[C@H](O)CCCCCCCc1nc2cc(Cl)ccc2[nH]1
17
CCCCCC[C@@H](O)C/C=C\CCCCCCCc1nc2ccccc2[nH]1
12
CCCCC/C=C\CC[C@H](O)CCCCCCCc1nc2c([nH]1)CCCC2
13
CCCCCC[C@@H](O)C/C=C\CCCCCCCc1nc2cc([N+](=O)[O-])ccc2[nH]1
12
CCCCCCCC/C=C/CCCCCCCc1nc2c([nH]1)CCCC2
10
CCCCCC[C@@H](O)C/C=C\CCCCCCCc1ncc[nH]1
12

Shift focus to the following entry.
Please look up its diameter of the inhibition zone (DIZ): C=CCCCCCCCCc1nc2cc([N+](=O)[O-])ccc2[nH]1
12

###

System: Penicillium sp.
test: Antifungal activity against Penicillium sp. at 28 degC after 72 hrs; further: test concentration or dose not given here
Assay type: functional
metric: diameter of the inhibition zone (DIZ) (mm)
Numbers only, in mm.

CCCCC/C=C\CC[C@H](O)CCCCCCCc1ncc[nH]1
19
CCCCCC[C@@H](O)C/C=C\CCCCCCCc1nc2cc(Cl)ccc2[nH]1
19
C=CCCCCCCCCc1nc2cc(Cl)ccc2[nH]1
19
CCCCC/C=C\CC[C@H](O)CCCCCCCc1nc2ccccc2[nH]1
17
CCCCCC[C@@H](O)C/C=C\CCCCCCCc1nc2cc([N+](=O)[O-])ccc2[nH]1
19

Shift focus to the following entry.
Please look up its diameter of the inhibition zone (DIZ): CCCCCCCC/C=C\CCCCCCCc1nc2ccccc2[nH]1
18

###

Answer each item with its documented diameter of the inhibition zone (DIZ).
System: Trichoderma viride
test: Antifungal activity against Trichoderma viride at 28 degC after 72 hrs
Type: functional
Give bare numbers, in mm.

Past entries and their recorded results:
CCCCCCCC/C=C\CCCCCCCc1nc2ccccc2[nH]1
6
CCCCCC[C@@H](O)C/C=C\CCCCCCCc1nc2c([nH]1)CCCC2
7
CCCCC/C=C\CC[C@H](O)CCCCCCCc1ncc[nH]1
6

Batch: diameter of the inhibition zone (DIZ) for all items listed.
1. CCCCCC[C@@H](O)C/C=C\CCCCCCCc1ncc[nH]1
2. CCCCCC[C@@H](O)C/C=C\CCCCCCCc1nc2cc([N+](=O)[O-])ccc2[nH]1
3. C=CCCCCCCCCc1ncc[nH]1
4. CCCCCCCC/C=C/CCCCCCCc1nc2cc([N+](=O)[O-])ccc2[nH]1
5. C=CCCCCCCCCc1nc2cc(Cl)ccc2[nH]1
6. CCCCCC[C@@H](O)C/C=C\CCCCCCCc1nc2cc(Cl)ccc2[nH]1
7. CCCCC/C=C\CC[C@H](O)CCCCCCCc1nc2cc(Cl)ccc2[nH]1

1: 6; 2: 9; 3: 6; 4: 8; 5: 10; 6: 9; 7: 8

Please look up its diameter of the inhibition zone (DIZ): C=CCCCCCCCCc1nc2cc([N+](=O)[O-])ccc2[nH]1
8

Ref: ChEMBL document CHEMBL1137675
